B1: HDV Ribozyme (parent)
chain: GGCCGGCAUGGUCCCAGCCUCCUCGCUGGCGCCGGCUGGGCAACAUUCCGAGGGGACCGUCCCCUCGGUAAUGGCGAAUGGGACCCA

Variants of: B1
experiment: self-cleavage, relative activity (ratio to wild type); higher = more cleavage; co-transcriptional
I would appreciate it if you labelled entries TRUE when self-cleavage is 0.09 or higher, otherwise FALSE.

variant descriptor	answer label
G17C G73U	FALSE
C22G U69A	TRUE
A77U C86U	TRUE
G35U U60G	TRUE
G11A G39A	TRUE
G6A C86G	TRUE
A42U U47C	TRUE
G11C G34C	FALSE

IN: Threshold query (self-cleavage >= 0.09) on G10C A45C
OUT: TRUE
